System: Lentils
Assay: Herbicidal effect on potted weeds, plant development score
Assay type: in vivo
Conditions: pre-emergence, soil application 1 mg/pot; scale 0 (dead plants) to 5 (healthy, as Control)
QUANTITY: Average Herbicidal Effect, Lentils
One number for each entry.

Known Average Herbicidal Effect, Lentils results, listed for orientation:
COMPOUND	QUANTITY	MEASUREMENT
CCOC(=O)Cc1cccc(Br)n1 [compound 6635, ethyl 2-(6-bromopyridin-2-yl)acetate]	Average Herbicidal Effect, Lentils	0.0
CCOC(=O)C(F)(F)c1cc(Cl)sc1Cl [compound 5643]	Average Herbicidal Effect, Lentils	5.0
O=C(O)C(F)(F)c1csc(C(F)(F)F)n1 [compound 5679]	Average Herbicidal Effect, Lentils	0.0
OCC(F)(F)c1cccc(Br)n1 [compound 6643]	Average Herbicidal Effect, Lentils	0.0
O=C(O)Cc1cc(Cl)sc1Cl [compound 586]	Average Herbicidal Effect, Lentils	0.5
O=C(O)C(F)(F)c1nc(Cl)sc1Cl [compound 5667]	Average Herbicidal Effect, Lentils	0.0

Give Average Herbicidal Effect, Lentils for each of the items listed below.
1. CCOC(=O)Cc1cc(Cl)sc1Cl [compound 5668, ethyl (2,5-dichlorothiophen-3-yl)acetate]
2. O=C([O-])C(F)(F)c1csc(Cl)n1.[Na+] [compound 5666]

4.0
0.0
